Entry source: paper PMC9738565

- measurement target: SHIP2 (Homo sapiens)
- Construct: purchased Echelon Biosciences
- protocol notes: Malachite green phosphatase release assay, SHIP2
- Format: biochemical
- condition: 250 µM compound; read-out: Malachite (250 µM) % Inhib. SHIP2
outcome measure: inhibition at 250 µM (%)
Give the value in % but do not write % after it.

smiles str	measured value
CSc1ccc2c(c1)c(CCN)c(C)n2Cc1ccccc1.Cl	28
CNCCc1c(C)n(Cc2ccccc2Cl)c2ccc(SC)cc12	14
CCNCCc1c(C)n(Cc2ccccc2Cl)c2ccc(SC)cc12	13
CSc1ccc2c(c1)c(CCN)c(C)n2Cc1ccc(Cl)cc1.Cl	18
CSc1ccc2c(c1)c(CCN(C)C)c(C)n2Cc1ccccc1Cl	0
CSc1ccc2c(c1)c(CCN)c(C)n2Cc1ccccc1Cl.Cl	7
CSc1ccc2c(c1)c(CCN)c(C)n2Cc1ccc(Br)cc1.Cl	30

Consider the record given below.
Query: May I ask what inhibition at 250 µM has been recorded for CSc1ccc2c(c1)c(CCNC(C)=O)c(C)n2Cc1ccccc1Cl ?
Reply: 0

###

- measurement target: SHIP2 (Homo sapiens, UniProt O15357)
- Construct: purchased Echelon Biosciences
- protocol notes: Malachite green phosphatase release assay, SHIP2
- Assay type: biochemical
- condition: 500 µM compound; read-out: Malachite (500 µM) % Inhib. SHIP2
Respond with satisfied for inhibition at 500 µM values of 40% and above, not satisfied for values below.

Consider the worked cases shown below.
smiles str	class assignment
CSc1ccc2c(c1)c(CCN(C)C)c(C)n2Cc1ccccc1Cl	not satisfied
CSc1ccc2c(c1)c(CCN)c(C)n2Cc1ccc(Cl)cc1.Cl	satisfied
CNCCc1c(C)n(Cc2ccccc2Cl)c2ccc(SC)cc12	not satisfied
CCNCCc1c(C)n(Cc2ccccc2Cl)c2ccc(SC)cc12	satisfied
CSc1ccc2c(c1)c(CCN)c(C)n2Cc1ccccc1Cl.Cl	satisfied
CSc1ccc2c(c1)c(CCN)c(C)n2Cc1ccc(Br)cc1.Cl	not satisfied

Query: inhibition at 500 µM >= 40% for CSc1ccc2c(c1)c(CCNC(C)=O)c(C)n2Cc1ccccc1Cl ?
Reply: not satisfied

###

- measurement target: SHIP2 (Homo sapiens, UniProt O15357)
- Sequence (O15357 1-1258): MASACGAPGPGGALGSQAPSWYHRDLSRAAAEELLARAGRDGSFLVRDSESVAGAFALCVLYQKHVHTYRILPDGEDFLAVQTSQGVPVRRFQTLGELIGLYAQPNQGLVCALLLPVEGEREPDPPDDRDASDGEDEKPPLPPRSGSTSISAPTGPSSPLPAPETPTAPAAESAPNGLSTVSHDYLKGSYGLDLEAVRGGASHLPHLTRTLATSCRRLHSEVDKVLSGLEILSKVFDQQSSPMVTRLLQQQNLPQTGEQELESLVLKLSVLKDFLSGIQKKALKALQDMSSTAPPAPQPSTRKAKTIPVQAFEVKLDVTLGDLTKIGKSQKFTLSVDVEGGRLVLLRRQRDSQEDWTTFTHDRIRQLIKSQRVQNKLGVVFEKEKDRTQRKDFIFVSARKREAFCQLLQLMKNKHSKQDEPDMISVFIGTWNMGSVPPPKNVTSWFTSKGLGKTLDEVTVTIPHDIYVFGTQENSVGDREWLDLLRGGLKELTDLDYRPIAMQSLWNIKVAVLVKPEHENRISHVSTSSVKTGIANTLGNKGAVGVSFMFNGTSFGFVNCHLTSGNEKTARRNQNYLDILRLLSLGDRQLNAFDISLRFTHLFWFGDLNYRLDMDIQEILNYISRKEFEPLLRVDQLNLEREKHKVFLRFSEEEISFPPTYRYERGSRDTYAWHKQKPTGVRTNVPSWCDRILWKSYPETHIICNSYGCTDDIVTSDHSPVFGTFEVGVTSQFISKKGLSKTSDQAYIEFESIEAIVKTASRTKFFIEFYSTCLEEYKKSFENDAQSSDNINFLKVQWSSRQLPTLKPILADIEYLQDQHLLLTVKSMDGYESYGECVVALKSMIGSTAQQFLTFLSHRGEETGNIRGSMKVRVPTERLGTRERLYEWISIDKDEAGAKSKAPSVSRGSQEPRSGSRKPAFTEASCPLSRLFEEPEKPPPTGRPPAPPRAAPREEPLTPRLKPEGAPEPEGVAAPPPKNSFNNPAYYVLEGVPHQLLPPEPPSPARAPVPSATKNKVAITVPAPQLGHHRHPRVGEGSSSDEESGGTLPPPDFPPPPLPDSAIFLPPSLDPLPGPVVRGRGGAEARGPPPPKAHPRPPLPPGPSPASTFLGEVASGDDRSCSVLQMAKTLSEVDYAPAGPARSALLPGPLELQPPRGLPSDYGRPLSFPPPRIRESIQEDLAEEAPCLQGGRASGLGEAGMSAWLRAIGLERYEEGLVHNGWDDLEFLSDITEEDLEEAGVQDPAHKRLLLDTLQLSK
Listed here are molecules together with their documented IC50.
Could you kindly put the unit after your number?

molecule	outcome measure	measured value
CSc1ccc2c(c1)c(CCN)c(C)n2Cc1ccc(Br)cc1.Cl [Compound 7c]	IC50	58 µM

Consider the record given below.
Query: May I ask what IC50 has been recorded for CSc1ccc2c(c1)c(CCN)c(C)n2Cc1ccccc1.Cl [Compound 7e] ?
Reply: 12 µM

###

Listed here are compounds together with their documented Malachite (500 µM) % Inhib. SHIP1.
- System: recombinant human truncated SHIP1 (tSHIP1)
- protocol notes: Malachite green phosphatase release assay, SHIP1
- Type: biochemical
- condition: 500 µM compound
Give the value in % but do not write % after it.

Recorded results for 4 compounds are shown here.
compound	measurement target	measured value
CSc1ccc2c(c1)c(CCN)c(C)n2Cc1ccc(Cl)cc1Cl.Cl [Compound 7d]	recombinant human truncated SHIP1 (tSHIP1)	52
CSc1ccc2c(c1)c(CCNS(C)(=O)=O)c(C)n2Cc1ccccc1Cl [Compound 15]	recombinant human truncated SHIP1 (tSHIP1)	−27
CSc1ccc2c(c1)c(CCN)c(C)n2Cc1ccccc1.Cl [Compound 7e]	recombinant human truncated SHIP1 (tSHIP1)	40
CNCCc1c(C)n(Cc2ccccc2Cl)c2ccc(SC)cc12 [Compound 13]	recombinant human truncated SHIP1 (tSHIP1)	9

Consider the record given below.
Query: May I ask what Malachite (500 µM) % Inhib. SHIP1 has been recorded for CSc1ccc2[nH]c(C)c(CCN)c2c1.Cl [Compound 7f] ?
Reply: 0

###

- Test system: recombinant human truncated SHIP1 (tSHIP1)
- protocol notes: Malachite green phosphatase release assay, SHIP1
- Assay type: biochemical
- condition: 500 µM compound
outcome measure: Malachite (500 µM) % Inhib. SHIP1 (%)
Give the value in % but do not write % after it.

smiles str	Malachite (500 µM) % Inhib. SHIP1 (%)
CSc1ccc2c(c1)c(CCN)c(C)n2Cc1ccc(Br)cc1.Cl	47

Query: May I ask what Malachite (500 µM) % Inhib. SHIP1 has been recorded for CSc1ccc2c(c1)c(CCN)c(C)n2Cc1ccccc1Cl.Cl ?
Reply: 51

Query: May I ask what Malachite (500 µM) % Inhib. SHIP1 has been recorded for CCNCCc1c(C)n(Cc2ccccc2Cl)c2ccc(SC)cc12 ?
Reply: 21

Query: May I ask what Malachite (500 µM) % Inhib. SHIP1 has been recorded for CSc1ccc2c(c1)c(CCN)c(C)n2Cc1ccc(Cl)cc1.Cl ?
Reply: 33

Query: May I ask what Malachite (500 µM) % Inhib. SHIP1 has been recorded for CSc1ccc2c(c1)c(CCN(C)C)c(C)n2Cc1ccccc1Cl ?
Reply: 5

###

- measurement target: tSHIP1 (Homo sapiens)
- Sequence (Q92835 399-715 limits assumed): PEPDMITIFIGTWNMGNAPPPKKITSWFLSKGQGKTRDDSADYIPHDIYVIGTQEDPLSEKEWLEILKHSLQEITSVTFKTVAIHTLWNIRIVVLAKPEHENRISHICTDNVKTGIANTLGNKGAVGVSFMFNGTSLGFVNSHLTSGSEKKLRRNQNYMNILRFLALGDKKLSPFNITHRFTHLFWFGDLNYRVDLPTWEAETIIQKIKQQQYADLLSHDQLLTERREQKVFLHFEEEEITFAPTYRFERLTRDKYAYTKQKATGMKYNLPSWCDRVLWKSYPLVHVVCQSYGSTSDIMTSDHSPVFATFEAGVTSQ
- protocol notes: Fluorescence Polarization (FP) assay for the detection of PI(3,4)P2, SHIP1
- Format: biochemical
- condition: FP assay; read-out: IC50 SHIP1 (Via FP)
outcome measure: pIC50
Recall that pIC50 is obtained by taking minus log10 of the concentration measured in molar.

Recorded results for 2 compounds are shown here.
smiles str	pIC50
CSc1ccc2c(c1)c(CCN)c(C)n2Cc1ccc(Cl)cc1.Cl	4.96
CSc1ccc2c(c1)c(CCN)c(C)n2Cc1ccccc1.Cl	4.89

Consider the record given below.
Query: May I ask what pIC50 has been recorded for CSc1ccc2c(c1)c(CCN)c(C)n2Cc1ccc(Br)cc1.Cl ?
Reply: 4.29

###

- measurement target: tSHIP1 (Homo sapiens, UniProt Q92835)
- protocol notes: Fluorescence Polarization (FP) assay for the detection of PI(3,4)P2, SHIP1
- Type: biochemical
outcome measure: IC50 (µM)
Give the value in µM but do not write µM after it.

Query: May I ask what IC50 has been recorded for CSc1ccc2c(c1)c(CCN)c(C)n2Cc1ccccc1Cl.Cl ?
Reply: 5
